Origin of the recorded values: PubChem BioAssay (NCI)

System: SF-539 CNS
Assay: NCI tumour cell line growth inhibition, 48 h
Catalogue of compounds with associated TGI

For orientation, consider the following solved cases.
O=C(O)c1ccccc1CC(Cc1ccccc1)C(=O)O (centres undefined): > 100 µM
CC(C)=NNc1ncnc2nc[nH]c12: > 88.9 µM
COc1ccc2c3c(c(C(=O)O)oc13)C(CCC(=O)O)CC2 (centres undefined): > 100 µM

Okay, now this compound:
Need TGI of `COC(=O)c1cc2ccccc2c2nc3ccccc3c(Cl)c12` , thanks. > 100 µM

====

System: NCI-H226 lung
Experiment: NCI tumour cell line growth inhibition, 48 h
Catalogue of compounds with associated TGI

O=C(CCC(=O)C1Cc2ccccc2C1=O)Nc1cccc(C(F)(F)F)c1 (stereo unspecified): > 100 µM
COc1cccc(/C=C2/S/C(=N/Nc3nc(C)c(C(C)=O)s3)NC2=O)c1O: > 100 µM
O=c1[nH]c(=O)n(C2CC(O)C(O)C(CO)O2)cc1F (stereo unspecified): > 100 µM
COc1ccc2nc(-c3ccc(O)cc3)ccc2c1: > 100 µM
CCOC(=O)C1=CSC2=NC3=C(CCC/C3=C\c3cc(OC)c(OC)c(OC)c3)C(c3cc(OC)c(OC)c(OC)c3)N12 (stereo unspecified): > 100 µM
CC(=O)O[C@H]1C[C@H]2[C@@H]([C@H](OC(C)=O)C[C@@H]3CC4(CC[C@@]32C)OOC2(CCCCC2)OO4)[C@@H]2CC[C@H]([C@H](C)CCC(=O)O)[C@@]12C: 31.6 µM
O=C(NN1C(=O)C(Cl)C1c1c(O)ccc2ccccc12)c1ccccc1O (stereo unspecified): > 100 µM
O[C@]12c3ccccc3C1CCCCC2N1CCOCC1 (stereo partly specified): > 100 µM
OC1CSCCSCCCSCCSC1: > 100 µM
CCOC(=O)C(C)(Cc1ccc(O)cn1)NC(=O)c1ccccc1 (stereo unspecified): > 100 µM

Need TGI of Nc1ncnc2c1ncn2CCOC(c1ccccc1)P(=O)(O)O (stereo unspecified) , thanks. > 100 µM

Need TGI of `O=C1c2ccoc2C(=O)c2oc(=O)ccc21` , thanks. > 56.7 µM

Need TGI of `CCN(CCCl)c1cc(CN(C)C)cc(NC(=O)c2cc(C(=O)Nc3cc(CN(C)C)cc(N(CC)CCCl)c3)n(C)n2)c1` , thanks. 4.16 µM

Need TGI of `COc1ccc2c(C(=O)c3c(C)n(CCN4CCOCC4)c4ccccc34)cccc2c1` , thanks. > 100 µM

Need TGI of `Nc1c(C(=O)c2ccccc2)nnc2ccccc12` , thanks. > 100 µM

Need TGI of `O=S(=O)(Cc1ccccc1)SCc1ccccc1` , thanks. 54.4 µM

====

Test system: OVCAR-5 ovarian
Experiment: NCI tumour cell line growth inhibition, 48 h
Catalogue of compounds with associated TGI

CN(CCCNC(=O)c1c2ccc3ccccc3c2nn1C)CCCNC(=O)c1c2ccc3ccccc3c2nn1C: 25.4 µM
C=CCCCCCCCCC(=O)ON(Cc1ccc(O)c(OC)c1)C(=O)C(F)(F)F: > 100 µM

Need TGI of `CCN(CC)C(=O)CCCCCn1c2ccccc2c2c3c(c4c5ccccc5[nH]c4c21)C(=O)N(O)C3=O` , thanks. > 100 µM

Need TGI of `CCOC(=O)n1c2ccccc2c(=O)n1CCO` , thanks. > 100 µM

Need TGI of O=CC(O)C(O)C(OC1OC(CO)C(O)C(O)C1O)C(O)CO (configuration not stated) (tested in a mixture with another compound) , thanks. > 100 µM

Need TGI of `CC1CCN(c2cc(-c3cc4ccccc4o3)oc(=O)c2C#N)CC1` , thanks. > 100 µM

Need TGI of `Nc1c(C(=O)Nc2ccccc2O)[n+]([O-])c2ccccc2[n+]1[O-]` , thanks. > 100 µM

Need TGI of `Nc1ncnc2sc(Nc3ccccc3)nc12` , thanks. > 100 µM

Need TGI of CCCC(=O)OC1C(C2COC(C)(C)O2)OC2OC(C)(C)OC21 (configuration not stated) , thanks. > 100 µM
